From: paper PMC6326798

# ratio to parent per entry
- ASSAYED TARGET: T1, GST-ctCENP-I^NT
- T1 chain: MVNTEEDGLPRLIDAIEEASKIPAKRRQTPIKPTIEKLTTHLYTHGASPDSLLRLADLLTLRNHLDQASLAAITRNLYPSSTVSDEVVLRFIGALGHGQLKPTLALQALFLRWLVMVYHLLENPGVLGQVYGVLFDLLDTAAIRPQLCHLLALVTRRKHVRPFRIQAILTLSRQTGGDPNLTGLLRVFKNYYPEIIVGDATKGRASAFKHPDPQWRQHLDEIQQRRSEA
- METHOD SUMMARY: GST pull-down
- CONDITIONS USED: chain shown with the change;; parent: est. 1.0; read off a plot
Quick one: just the number, no unit, thanks!

[
  {
    "BINDER": "full-length T. terrestris CENP-H (thCENP-H) R220E (protein) MAATASTATPTPLPHFTEREASVLALYDRLRQLQLELALLTSQRSHGVIETSASRRAENDLAVDEARLLEARATLDLRDSVVENVVTLQPILNAVHHATHASPLERDLLPYTEQRDATATKVASLCADLDSAWGRLAELETESLRATQRNMELASEVLRLAAGTNDKTPSQLEGGRLEMELAGHEAEMKSNRRRWRIMKGAASAIVAGSGIDWVRDERLEDLVLDLPD",
    "ratio to parent": 0.32
  },
  {
    "BINDER": "full-length T. terrestris CENP-H (thCENP-H) W213A (protein) MAATASTATPTPLPHFTEREASVLALYDRLRQLQLELALLTSQRSHGVIETSASRRAENDLAVDEARLLEARATLDLRDSVVENVVTLQPILNAVHHATHASPLERDLLPYTEQRDATATKVASLCADLDSAWGRLAELETESLRATQRNMELASEVLRLAAGTNDKTPSQLEGGRLEMELAGHEAEMKSNRRRWRIMKGAASAIVAGSGIDAVRDERLRDLVLDLPD",
    "ratio to parent": 1.2
  }
]

What value of ratio to parent has been reported for the following binder? full-length T. terrestris CENP-H (thCENP-H) I211A; L219A (protein) MAATASTATPTPLPHFTEREASVLALYDRLRQLQLELALLTSQRSHGVIETSASRRAENDLAVDEARLLEARATLDLRDSVVENVVTLQPILNAVHHATHASPLERDLLPYTEQRDATATKVASLCADLDSAWGRLAELETESLRATQRNMELASEVLRLAAGTNDKTPSQLEGGRLEMELAGHEAEMKSNRRRWRIMKGAASAIVAGSGADWVRDERARDLVLDLPD
1.2

What value of ratio to parent has been reported for the following binder? full-length T. terrestris CENP-H (thCENP-H) R220E; L224A (protein) MAATASTATPTPLPHFTEREASVLALYDRLRQLQLELALLTSQRSHGVIETSASRRAENDLAVDEARLLEARATLDLRDSVVENVVTLQPILNAVHHATHASPLERDLLPYTEQRDATATKVASLCADLDSAWGRLAELETESLRATQRNMELASEVLRLAAGTNDKTPSQLEGGRLEMELAGHEAEMKSNRRRWRIMKGAASAIVAGSGIDWVRDERLEDLVADLPD
0.13
